- targetDesc: Cytochrome P450 2D6 (Homo sapiens) (UniProt P10635)
- Sequence (P10635 whole entry, looked up): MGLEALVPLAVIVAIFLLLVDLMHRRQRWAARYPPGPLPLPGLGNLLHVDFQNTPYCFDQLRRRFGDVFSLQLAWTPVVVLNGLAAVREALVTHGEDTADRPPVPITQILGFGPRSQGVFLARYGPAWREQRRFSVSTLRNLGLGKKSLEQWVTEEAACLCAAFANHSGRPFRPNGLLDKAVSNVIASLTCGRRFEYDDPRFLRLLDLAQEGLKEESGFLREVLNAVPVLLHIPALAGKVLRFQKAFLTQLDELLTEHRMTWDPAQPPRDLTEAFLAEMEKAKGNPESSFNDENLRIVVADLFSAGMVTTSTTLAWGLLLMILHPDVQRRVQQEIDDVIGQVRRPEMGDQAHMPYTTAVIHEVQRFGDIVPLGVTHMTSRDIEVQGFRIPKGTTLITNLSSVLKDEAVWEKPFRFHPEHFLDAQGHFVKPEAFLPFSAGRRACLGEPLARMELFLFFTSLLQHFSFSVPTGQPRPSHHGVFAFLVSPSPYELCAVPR
- assayRemarks: Cytochrome panel assay with activity outcomes; on activity, negative = inhibition: on the % scale 0 is the no-effect control and ±100 the full control effect
- testParameters: recombinant CYP, pro-luciferin dealkylation, luminescence, p450-cyp2d6; series mostly up to 57.1 µM
The whole screen tested about 16,000 compounds, of which about 2,600 (16%) were called active. Not shown: some 20% with an inconclusive outcome. A selection follows.
Kindly state activity, negative = inhibition for each of the entries shown.

// recorded activity, negative = inhibition for O=S(=O)(O)c1ccc(-c2nnc(-c3ccccn3)nc2-c2ccc(S(=O)(=O)O)o2)o1 : 16.6% [at 11.4 µM] (inactive)

// recorded activity, negative = inhibition for COC(=O)[C@@H]1CC[C@H](C)[C@@H](c2ccc(C)cc2)N1C(=O)c1ccc(/C=N\OCC[C@@H]2C=C[C@H](OC(C)=O)[C@H](COC(C)=O)O2)cc1 : 6.79% [at 11.4 µM] (inactive)

// recorded activity, negative = inhibition for NCC(=O)Nc1ccc(Cl)cc1C(=O)c1ccc[nH]1 : 3.55% [at 11.4 µM] (inactive)

// recorded activity, negative = inhibition for CCOC(=O)C(C)(C)[C@H](O)C(C)C : 10.9% [at 11.4 µM] (inactive)

// recorded activity, negative = inhibition for Cc1nc2ccccc2nc1-c1ccc(N=[N+]([O-])c2ccc(-c3nc4ccccc4nc3C)cc2)cc1 : -15.4% [at 11.4 µM] (inactive)

// recorded activity, negative = inhibition for CC(C)=CCc1c2c(c3occ(-c4ccc(O)c(O)c4)c(=O)c3c1O)C=CC(C)(C)O2 : -0.0819% [at 11.4 µM] (inactive)

// recorded activity, negative = inhibition for CC(C)C(=O)N[C@@H]1CCCN1C(=O)/C=C\c1ccccc1 : -16.8% [at 11.4 µM] (inactive)

// recorded activity, negative = inhibition for CO[C@H]1COC(=O)[C@H]2CCCN2C(=O)C/C=C\[C@@H](C)[C@H](OC)COC(=O)C/C=C\[C@@H]1C : -7.59% [at 11.4 µM] (inactive)

====

- targetDesc: Cytochrome P450 2D6 (Homo sapiens) (UniProt P10635)
- assayRemarks: Cytochrome panel assay with activity outcomes
- testParameters: recombinant CYP, pro-luciferin dealkylation, luminescence, p450-cyp2d6; series mostly up to 57.1 µM
About 2,600 (16%) of roughly 16,000 compounds were called active. Another 20% or so got no clear call; they are omitted. Calls come from the whole dose curve; as a rule, active = well fitted curve in the direction sought with a large enough effect; inconclusive = small, poorly fitted or top-dose-only effect, or effect the other way; inactive = no such curve, though single readings can be large or run the other way. Only a sample is shown.
Could you please pick one outcome from this set? y for active, n for inactive

Record request — test call for COC(=O)N1CCC[C@@]2(CCN(C(=O)Nc3ccc(OC)cc3)C2)C1
n

Record request — test call for Cc1noc(C)c1C(=O)N1CCC[C@@]2(CCN(c3ccccc3)C2)C1
n

Record request — test call for COc1ccc(NC(=O)N2CC[C@@]3(CCCN(C(=O)c4c(C)noc4C)C3)C2)cc1
n

Record request — test call for Cn1nc(C(F)(F)F)c(/C=N/OC(=O)c2ccccc2Cl)c1SCc1ccc(Cl)cc1
n

Record request — test call for Cc1cccc(C)c1OC1(c2ccccc2)OC(=O)c2ccccc21 (stereo not given)
n

Record request — test call for COC(=O)N1CCC[C@@]2(CCN(C(c3ccccc3)c3ccccc3)C2)C1
y

Record request — test call for COc1cc2c(cc1OC)CN(C(=S)Nc1ccccc1)CC2
n

Record request — test call for CCOC(=O)c1[nH]c2cc(OC)c(OC)cc2c1NC(=O)c1nonc1C
n

Record request — test call for CCOC(=O)c1[nH]c2cc3c(cc2c1NC(=O)CN1CCC2(CC1)OCCO2)OCO3
n

Record request — test call for O=C(CSc1nnnn1C1CCCC1)Nc1ccc(F)cc1
y

Record request — test call for O=C(CN1CCN(C2CCCCC2)CC1)NCCC1=CCCCC1
y

Record request — test call for CC(C)(C)C(=O)OCOC(=O)[C@@H]1N2C(=O)[C@@H](NC(=O)[C@H](N)c3ccccc3)[C@H]2SC1(C)C
n

Record request — test call for CC[N+](CC)(CC)CCOc1cccc(OCC[N+](CC)(CC)CC)c1OCC[N+](CC)(CC)CC
n

Record request — test call for COc1cc(-c2nnc(SCC(=O)Nc3ccc4c(c3)OCCO4)o2)cc(OC)c1OC
n

Record request — test call for CC(=O)N1CCC2(CC1)CN(c1ccccc1)C2
n

Record request — test call for COc1ccc(NC(=O)CSc2nnc(C3CC3)n2N)cc1
n

Record request — test call for CCNc1ncc2ncc(=O)n(C3CC3)c2n1
n

Record request — test call for CCCCCOc1ccc(NC(=O)C(=O)NCCC2=CCCCC2)cc1
n

Record request — test call for N=c1n(CCN2CCOCC2)c2ccccc2n1CC(=O)c1ccc(Cl)c(Cl)c1
y

Record request — test call for CC(=O)OC[C@H]1O[C@@H](O/N=C\[C@@H](C)[C@H](OCc2ccccc2)C(C)C)[C@H](OC(C)=O)[C@@H](OC(C)=O)[C@H]1OC(C)=O
y

Record request — test call for C[C@H](C[C@H](N)C(=O)O)C(=O)O
n

Record request — test call for O=C(CN1CCN(c2ncccn2)CC1)NCCC1=CCCCC1
y

Record request — test call for O=C(CSc1ccccc1)Nc1ccc(N2CCN(c3ccccc3)CC2)c(F)c1
n

Record request — test call for O=C(COc1ccc(Cl)cc1)NCCC1=CCCCC1
n

Record request — test call for O=C(CSc1ccc(Cl)cc1)Nc1ccc(N2CCN(c3ccccc3)CC2)c(F)c1
n

====

- targetDesc: Cytochrome P450 2D6 (Homo sapiens) (UniProt P10635)
- assayRemarks: Cytochrome panel assay with activity outcomes
- testParameters: recombinant CYP, pro-luciferin dealkylation, luminescence, p450-cyp2d6; series mostly up to 57.1 µM
About 2,600 (16%) of roughly 16,000 compounds were called active. Another 20% or so got no clear call; they are omitted. The call rests on the fitted dose curve; in most records, active means well fitted curve in the direction sought with a large enough effect; inconclusive means small, poorly fitted or top-dose-only effect, or effect the other way; inactive means no such curve, though single readings can be large or run the other way. A selection follows.
Could you please pick one outcome from this set? active, inactive

Record request — test call for O=C(/C=C\c1ccc(O)c(O)c1)O[C@@H]1C[C@](O)(C(=O)O)C[C@@H](O)[C@@H]1O
inactive

Record request — test call for CC1CCN(CC(=O)N2c3ccccc3Sc3cc4ccccc4cc32)CC1
active

Record request — test call for COc1ncc2nc(C)c(=O)n(CCC#N)c2n1
inactive

====

Kindly state activity, negative = inhibition for each of the entries shown.
- targetDesc: Cytochrome P450 2D6 (Homo sapiens) (UniProt P10635)
- assayRemarks: Cytochrome panel assay with activity outcomes; on activity, negative = inhibition: on the % scale 0 is the no-effect control and ±100 the full control effect
- testParameters: recombinant CYP, pro-luciferin dealkylation, luminescence, p450-cyp2d6; series mostly up to 57.1 µM
Hit rate of the full screen: of about 16,000 compounds, about 2,600 (16%) were called active. Roughly 20% stayed inconclusive and do not appear here. A selection follows.

Recorded activity, negative = inhibition for COC(=O)[C@@H]1CC[C@H](C)[C@@H](c2ccc(C)cc2)N1C(=O)c1ccc(/C=N\OC[C@@H](O)[C@H]2O[C@H]3OC(C)(C)O[C@H]3[C@@H]2O)cc1 on Cytochrome P450 2D6 (Homo sapiens) (UniProt P10635) was 3.7% [at 11.4 µM] (inactive)

Recorded activity, negative = inhibition for O=C(O)CCCc1ccc2ccccc2c1 on Cytochrome P450 2D6 (Homo sapiens) (UniProt P10635) was 0.631% [at 11.4 µM] (inactive)

Recorded activity, negative = inhibition for CC(C)=CCC/C(C)=C/CO/N=C1/C[C@@H](O)[C@@H](O)[C@@H]2[C@@H]3C(=O)N(C(C)(C)C)C(=O)[C@H]3CC[C@@H]12 on Cytochrome P450 2D6 (Homo sapiens) (UniProt P10635) was 6.78% [at 11.4 µM] (inactive)

Recorded activity, negative = inhibition for CC(C)C(O)(C(C)C)C(C)C on Cytochrome P450 2D6 (Homo sapiens) (UniProt P10635) was 8.61% [at 11.4 µM] (inactive)

Recorded activity, negative = inhibition for C[C@@H](c1ccccc1)N1C(=O)[C@H]2[C@H]3[C@H](O)[C@H](O)C/C(=N/OCc4ccccc4)[C@H]3CC[C@@H]2C1=O on Cytochrome P450 2D6 (Homo sapiens) (UniProt P10635) was 6.68% [at 11.4 µM] (inactive)

Recorded activity, negative = inhibition for O=C(O)[C@H]1[C@H](C(=O)O)[C@H](C(=O)O)C[C@@H]1C(=O)O on Cytochrome P450 2D6 (Homo sapiens) (UniProt P10635) was -4.27% [at 11.4 µM] (inactive)

Recorded activity, negative = inhibition for Cc1cccc2c1Oc1ccccc1[C@@H]2NC(=O)c1ccc([N+](=O)[O-])cc1 on Cytochrome P450 2D6 (Homo sapiens) (UniProt P10635) was 13.1% [at 11.4 µM] (inactive)

Recorded activity, negative = inhibition for C[C@@H]1CN2[C@H](c3ccc(Br)cc3)[C@H](C)CC[C@H]2C(=O)O1 on Cytochrome P450 2D6 (Homo sapiens) (UniProt P10635) was -10.6% [at 11.4 µM] (inactive)

Recorded activity, negative = inhibition for CCCNC(=O)OC[C@H]1O[C@@H](CCO/N=C\[C@@H](NS(=O)(=O)c2ccc(C)cc2)[C@H](C)/C=C\CC(=O)OC)C=C[C@@H]1Oc1ccc(OC)cc1 on Cytochrome P450 2D6 (Homo sapiens) (UniProt P10635) was -7.16% [at 11.4 µM] (inactive)

Recorded activity, negative = inhibition for CC(C)(C[C@@]1(C)NC(=O)NC1=O)OCc1ccccc1 on Cytochrome P450 2D6 (Homo sapiens) (UniProt P10635) was 1.81% [at 11.4 µM] (inactive)
